List of MIC tested on E.faecium.

Solved cases (5 shown):
>  <COMPOUND>
COc1ccc(N2CC/C(=C\C3=C(C(=O)O)N4C(=O)[C@@H](NC(=O)/C(=N\O)c5csc(N)n5)[C@H]4SC3)C2=O)cc1 [I]

>  <MIC>
0.1 to 16 µg/mL

$$$$
>  <COMPOUND>
Nc1nc(/C(=N/O)C(=O)N[C@@H]2C(=O)N3C(C(=O)O)=C(/C=C4\CCN(C5CC5)C4=O)CS[C@H]23)cs1 [D]

>  <MIC>
1 to 32 µg/mL

$$$$
>  <COMPOUND>
CON1CC/C(=C\C2=C(C(=O)O)N3C(=O)[C@@H](NC(=O)/C(=N\O)c4csc(N)n4)[C@H]3SC2)C1=O [G]

>  <MIC>
1 to 8 µg/mL

$$$$
>  <COMPOUND>
Nc1nc(/C(=N/O)C(=O)N[C@@H]2C(=O)N3C(C(=O)O)=C(/C=C4\CCN(CCF)C4=O)CS[C@H]23)cs1 [F]

>  <MIC>
1 to 16 µg/mL

$$$$
>  <COMPOUND>
Nc1nc(/C(=N/O)C(=O)N[C@@H]2C(=O)N3C(C(=O)O)=C(/C=C4\CCN(CC(F)(F)F)C4=O)CS[C@H]23)cs1 [E]

>  <MIC>
1 to 16 µg/mL

$$$$

Quote MIC with test system E.faecium for CC(C)(C)N1CC/C(=C\C2=C(C(=O)O)N3C(=O)[C@@H](NC(=O)/C(=N\O)c4csc(N)n4)[C@H]3SC2)C1=O [J]
2 to 32 µg/mL

With E.faecium as the test system, provide measured MIC for this compound: CO/N=C(\C(=O)N[C@@H]1C(=O)N2C(C(=O)O)=C(CSc3nc(=O)c(=O)[nH]n3C)CS[C@H]12)c1csc(N)n1 [Ceftriaxone, reference compound]
> 32 µg/mL
